log10 IC50 overview
tgt: human CCR6 (Homo sapiens)
Construct: expressed in transfected cells; host or cells: HEK-293
Sequence (P51684 whole entry): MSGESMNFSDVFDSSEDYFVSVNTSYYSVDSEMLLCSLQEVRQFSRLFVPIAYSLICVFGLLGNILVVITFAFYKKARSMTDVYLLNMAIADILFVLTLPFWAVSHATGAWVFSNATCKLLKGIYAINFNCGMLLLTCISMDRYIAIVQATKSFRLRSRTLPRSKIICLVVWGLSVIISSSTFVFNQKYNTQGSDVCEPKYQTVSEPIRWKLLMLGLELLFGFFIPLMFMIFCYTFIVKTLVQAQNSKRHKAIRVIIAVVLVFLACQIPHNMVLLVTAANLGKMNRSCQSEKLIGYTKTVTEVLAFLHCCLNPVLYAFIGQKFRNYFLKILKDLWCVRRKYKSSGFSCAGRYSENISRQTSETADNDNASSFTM
assay-info: FLIPR assay (inhibition of CCL20-induced calcium signal)
Type: cell-based
condition-parameters: HEK-293 cells expressing human CCR6; mean values where determined several times; read-out: FLIPR IC50
Base-10 log of IC50, unit nM.

// worked examples, log10 IC50 included
1) COC[C@H]1CN(c2cncc([C@@](O)(c3ccc(C(C)C)cc3)C3(C)CN(C)C3)c2)CCO1 [Example 236]; 2.32
2) Cc1cc(C(C)(O)C#Cc2cncc(C(O)(c3ccc(C(C)C)cc3)C3(C)CN(C)C3)c2)ncn1 (centres unmarked) [Example 40]; 1.97
3) CN1CC(C)([C@](O)(c2ccc(Br)cc2)c2cncc(-c3noc(C(C)(C)O)n3)c2)C1 [Example 532]; 2.86

Q: Tell me log10 IC50 reported for CC(C)c1ccc([C@](O)(c2cncc(OC3CCC(=O)CC3)c2)C2(C)CN(C)C2)cc1 [Example 424]
Ans: 2.03

Q: Tell me log10 IC50 reported for CC(C)C(=O)N1CC(O)(C#Cc2cncc([C@@](O)(c3ccc(C(C)C)cc3)C3(C)CN(C)C3)c2)C1 [Example 46]
Ans: 2.16

Q: Tell me log10 IC50 reported for Cc1nc(C(O)C#Cc2cncc([C@@](O)(c3ccc(C(C)C)cc3)C3(C)CN(C)C3)c2)cs1 (some centres unmarked) [Example 31]
Ans: 1.91

Q: Tell me log10 IC50 reported for CC(C)c1ccc([C@](O)(c2cncc(CCC(C)(O)c3ccccn3)c2)C2(C)CN(C)C2)cc1 (some centres unmarked) [Example 415]
Ans: 1.79

Q: Tell me log10 IC50 reported for Cc1cccc(C(C)(O)C#Cc2cncc([C@@](O)(c3ccc(C4(C(F)(F)F)CC4)cc3)C3(C)CN(C)C3)c2)n1 (some centres unmarked) [Example 654]
Ans: 1.66

Q: Tell me log10 IC50 reported for CC(C)c1ccc([C@](O)(c2cnnc(N3CC4(CCCCC4)OC3=O)c2)C2(C)CN(C)C2)cc1 [Example 440]
Ans: 1.71

Q: Tell me log10 IC50 reported for CC1CC(=O)N(c2cc([C@@](O)(c3ccc(C(C)C)cc3)C3(C)CN(C)C3)cnn2)C1 (some centres unmarked) [Example 432]
Ans: 2.16

Q: Tell me log10 IC50 reported for CC(C)c1ccc([C@](O)(c2cncc(-c3noc(C4CCC(O)CC4)n3)c2)C2(C)CN(C)C2)cc1 (some centres unmarked) [Example 111]
Ans: 1.63

Q: Tell me log10 IC50 reported for COc1nccc(C(C)(O)C#Cc2cncc([C@@](O)(c3ccc(C(C)C)cc3)C3(C)CN(C)C3)c2)n1 (single isomer, unassigned) [Example 624]
Ans: 1.91

Q: Tell me log10 IC50 reported for CN1CC(C)(C(O)(c2ccc(OC(F)(F)F)cc2)c2ccc(Oc3ccccc3)nc2)C1 (centres unmarked) [Example 147]
Ans: 1.80

Q: Tell me log10 IC50 reported for CC(C)c1ccc([C@](O)(c2cncc(-c3nc(C(C)(C)O)no3)c2)C2(C)CN(C)C2)cc1 [Example 99]
Ans: 2.05

Q: Tell me log10 IC50 reported for C=C(C)c1cncc(C(O)(c2ccc(C(C)C)cc2)C2(C)CN(C)C2)c1 (centres unmarked) [Example 286]
Ans: 1.56

Q: Tell me log10 IC50 reported for CC(=O)N1CCC(C(O)C#Cc2cncc([C@@](O)(c3ccc(C(C)C)cc3)C3(C)CN(C)C3)c2)CC1 (some centres unmarked) [Example 599]
Ans: 2.17

Q: Tell me log10 IC50 reported for CC(C)c1ccc([C@](O)(c2cncc(C#CC3(c4ccccn4)CC3)c2)C2(C)CN(C)C2)cc1 [Example 634]
Ans: 1.61

Q: Tell me log10 IC50 reported for COCC(=O)N1CCC(c2nc(-c3cncc([C@@](O)(c4ccc(C(C)C)cc4)C4(C)CN(C)C4)c3)no2)CC1 [Example 372]
Ans: 2.01

Q: Tell me log10 IC50 reported for COc1ccc(C(O)(c2cncc(N3CCCC3)c2)C2(C)CN(C)C2)cc1 (centres unmarked) [Example 151]
Ans: 2.53

Q: Tell me log10 IC50 reported for CC(C)c1ccc([C@](O)(c2cncc(C#CC3CCN(C(=O)OC(C)(C)C)CC3)c2)C2(C)CN(C)C2)cc1 [Example 407]
Ans: 1.71

Q: Tell me log10 IC50 reported for CC(C)c1ccc([C@](O)(c2cncc(C#C[C@H](C)O)c2)C2(C)CN(C)C2)cc1 [Example 17]
Ans: 1.73

Q: Tell me log10 IC50 reported for CC(=O)N1CCN(c2noc(-c3cncc([C@@](O)(c4ccc(C(C)C)cc4)C4(C)CN(C)C4)c3)n2)CC1 [Example 522]
Ans: 2.08
